# test-protocol: Brain exposure (brain:plasma ratio, Table 24)
# Format: in vivo, Rats
# condition-notes: rat, brain and plasma, iv; 3 MPK i.v. @ 6 hr, 1MPK @ 0.5 hr and 2 hr; avg; read-out: RATIO: Brain:plasma (Direct)
readout-label: Kp
Could you respond with only the numeric value?

[in] Any idea what its Kp is? The compound is NC(=O)Nc1ccc(OC[C@@H](O)CN2CCN(c3ccc(Cl)cc3)CC2)cc1 [drawing 803]
[out] 0.42

----------
# test-protocol: Oral absorption (p.o. pharmacokinetics, Table 25)
# Assay type: in vivo, Rats
# condition-notes: rat, plasma, 5 mg/kg, 5 MPK, 0-6 hr p.o., read-out: AUC (0-last h) p.o.
Measured AUC(0-t) accompanies every entry in the list below.
Expressed in ng·h/mL, but write only the number.

[in] Any idea what its AUC(0-t) is? The molecule is Cc1ccc(N2CCN(C[C@H](O)COc3ccc4c(c3)CCC(=O)N4)CC2)cc1 [drawing 812]
[out] 549

---
[in] Any idea what its AUC(0-t) is? The molecule is O=c1[nH]c2ccc(OC[C@@H](O)CN3CCN(c4ccc(F)c(F)c4)CC3)cc2[nH]1 [drawing 811]
[out] 1860
